Reference source for all entries: ChEMBL document CHEMBL4334421

# target: Protein deacetylase HDAC6 (Homo sapiens)
# Sequence (Q9UBN7 whole entry): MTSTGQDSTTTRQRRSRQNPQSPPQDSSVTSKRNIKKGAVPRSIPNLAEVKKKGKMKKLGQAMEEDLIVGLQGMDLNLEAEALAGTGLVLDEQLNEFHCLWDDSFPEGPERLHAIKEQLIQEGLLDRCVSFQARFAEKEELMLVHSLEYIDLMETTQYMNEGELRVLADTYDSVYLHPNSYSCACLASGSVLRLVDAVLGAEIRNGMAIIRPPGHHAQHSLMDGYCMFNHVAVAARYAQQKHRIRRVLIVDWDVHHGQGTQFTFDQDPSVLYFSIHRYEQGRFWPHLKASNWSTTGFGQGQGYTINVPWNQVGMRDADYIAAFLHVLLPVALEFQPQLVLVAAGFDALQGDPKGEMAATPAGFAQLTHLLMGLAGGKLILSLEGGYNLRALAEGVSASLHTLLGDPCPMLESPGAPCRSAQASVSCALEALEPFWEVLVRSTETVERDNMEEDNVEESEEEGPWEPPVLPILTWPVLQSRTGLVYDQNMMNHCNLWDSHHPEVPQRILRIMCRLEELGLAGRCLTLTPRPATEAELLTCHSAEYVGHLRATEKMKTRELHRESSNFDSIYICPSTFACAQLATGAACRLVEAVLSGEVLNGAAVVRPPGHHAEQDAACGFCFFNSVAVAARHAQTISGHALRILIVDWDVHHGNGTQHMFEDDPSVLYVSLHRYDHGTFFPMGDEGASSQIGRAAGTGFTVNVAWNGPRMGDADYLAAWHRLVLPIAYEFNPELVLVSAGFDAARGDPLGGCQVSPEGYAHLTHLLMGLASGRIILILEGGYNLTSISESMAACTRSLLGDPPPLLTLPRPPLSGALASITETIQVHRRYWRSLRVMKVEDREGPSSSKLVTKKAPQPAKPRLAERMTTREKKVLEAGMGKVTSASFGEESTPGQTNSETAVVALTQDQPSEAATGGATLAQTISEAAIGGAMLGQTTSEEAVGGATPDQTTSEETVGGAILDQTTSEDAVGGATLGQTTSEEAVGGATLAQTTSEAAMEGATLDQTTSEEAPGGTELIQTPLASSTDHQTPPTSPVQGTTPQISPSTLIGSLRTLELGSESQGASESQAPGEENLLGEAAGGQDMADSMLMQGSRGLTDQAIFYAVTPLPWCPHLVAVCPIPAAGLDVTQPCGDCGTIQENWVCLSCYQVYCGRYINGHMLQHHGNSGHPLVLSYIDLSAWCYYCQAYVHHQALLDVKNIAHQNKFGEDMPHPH
# assay_notes: Inhibition of recombinant full length N-terminal GST-tagged human HDAC6 expressed in baculovirus infected Sf9 cells using Z-Lys(Ac)-AMC as substrate incubated for 90 mins followed by trypsin addition and measured after 30 mins by fluorescence based assay
measured_metric: pIC50
Bear in mind: pIC50 is minus log10 of a mol/L concentration; give just that figure.

Cc1ccc(NC(=O)CCN(Cc2ccc(C(=O)NO)cc2)C(=O)c2cc(C)cc(C)c2)cc1 ... 7.51
Cc1ccc(C(=O)N(CCC(=O)NCc2ccccc2)Cc2ccc(C(=O)NO)cc2)cc1 ... 7.78
Cc1ccc(NC(=O)CCN(Cc2ccc(C(=O)NO)cc2)C(=O)c2ccccc2)cc1 ... 7.97
Cc1cc(C)cc(C(=O)N(CCC(=O)NCc2ccccc2)Cc2ccc(C(=O)NO)cc2)c1 ... 7.69
Cc1ccc(NC(=O)CCN(Cc2ccc(C(=O)NO)cc2)C(=O)c2ccc(N(C)C)cc2)cc1 ... 7.71

Query: Look at this compound and give its reported pIC50. "CN(C)c1ccc(C(=O)N(CCC(=O)NCc2ccccc2)Cc2ccc(C(=O)NO)cc2)cc1"
Reply: 7.83

Query: Recorded pIC50 of "CN(C)c1ccc(C(=O)N(CCC(=O)NCc2ccc(Cl)cc2)Cc2ccc(C(=O)NO)cc2)cc1" , please.
Reply: 8.00

Query: I would be grateful if you could share the reported pIC50 for "Cc1ccc(CNC(=O)CCN(Cc2ccc(C(=O)NO)cc2)C(=O)c2ccc(N(C)C)cc2)cc1" .
Reply: 7.84

Query: For "COc1ccc(C(=O)N(CCC(=O)NCc2ccccc2)Cc2ccc(C(=O)NO)cc2)cc1" , what is its reported pIC50?
Reply: 7.60

Query: Endpoint output: pIC50 of "COc1cc(OC)cc(C(=O)N(CCC(=O)NCc2ccccc2)Cc2ccc(C(=O)NO)cc2)c1" . Value?
Reply: 7.59

Query: For "O=C(CCN(Cc1ccc(C(=O)NO)cc1)C(=O)c1ccccc1)NCc1ccccc1" , what is its reported pIC50?
Reply: 7.90
